Tested on: KSHV-infected DMVEC
protocol details: PMO antisense inhibition of KSHV-induced spindle cell and foci formation (Example 3)
Type: cell-based, human
settings: KSHV-infected DMVEC loaded with gene-specific PMO antisense + EPEI
experimental endpoint: Extent of PMO-induced Inhibition of Spindle Cell Formation

substance	reported measurement
LMO2: PMO antisense to LMO2, GCCGAGGACATTGGGGAGGGAGGCG (SEQ ID NO:23) (all phosphorodiamidate morpholino (PMO); delivered paired with partially complementary DNA oligo (Special Delivery, EPEI))	none
IGFBP2: PMO antisense to IGFBP2, GGCAGCCCACTCTCTCGGCAGCATG (SEQ ID NO:16) (all phosphorodiamidate morpholino (PMO); delivered paired with partially complementary DNA oligo (Special Delivery))	full

====

Test system: KSHV-infected DMVEC
protocol details: PMO antisense inhibition of KSHV-induced spindle cell and foci formation (Example 3)
Assay type: cell-based, human
settings: KSHV-infected DMVEC loaded with gene-specific PMO antisense + EPEI
experimental endpoint: Extent of PMO-induced Inhibition of Spindle Cell Formation

substance	reported measurement
NOV: PMO antisense to NOV, AGCTCGTGCTCTGCACACTCTGCAT (SEQ ID NO:32) (all phosphorodiamidate morpholino (PMO); delivered paired with partially complementary DNA oligo (Special Delivery, EPEI))	full
Neuritin: PMO antisense to Neuritin, TTAACTCCCATCCTACGTTTAGTCA (SEQ ID NO:19) (all phosphorodiamidate morpholino (PMO); delivered paired with partially complementary DNA oligo (Special Delivery))	full

====

Test system: KSHV-infected DMVEC
protocol details: PMO antisense inhibition of KSHV-induced spindle cell and foci formation (Example 3)
Assay type: cell-based, human
settings: KSHV-infected DMVEC, gene-specific PMO antisense
experimental endpoint: Phenotype Inhibition (inhibition of spindle cell formation)

In the examples that follow, each entry is paired with its recorded Phenotype Inhibition (inhibition of spindle cell formation).
substance	reported measurement
KIT: FITC-labeled PMO targeting the start codon of c-Kit, CGCCTCTCATCGCGGTAGCTGCG (SEQ ID NO:21) (all phosphorodiamidate morpholino (PMO); FITC label attached, position not given here)	Full
ANGPTL2: PMO antisense to ANGPTL2, AGCATGTCACGCACAGTGGCCTCAT (SEQ ID NO:33) (all phosphorodiamidate morpholino (PMO); delivered paired with partially complementary DNA oligo (Special Delivery))	Intermediate
NOV: PMO antisense to NOV, AGCTCGTGCTCTGCACACTCTGCAT (SEQ ID NO:32) (all phosphorodiamidate morpholino (PMO); delivered paired with partially complementary DNA oligo (Special Delivery, EPEI))	Full
IGFBP2: PMO antisense to IGFBP2, GGCAGCCCACTCTCTCGGCAGCATG (SEQ ID NO:16) (all phosphorodiamidate morpholino (PMO); delivered paired with partially complementary DNA oligo (Special Delivery))	Full
K1AA0367: PMO antisense to KIAA0367, GTCAGTTTACTCATGTCATCTATTG (SEQ ID NO:18) (all phosphorodiamidate morpholino (PMO); delivered paired with partially complementary DNA oligo (Special Delivery))	Intermediate

What the record says about IFACTOR: PMO antisense to IFACTOR, AGCTTCATGTTGGAGGTGTTCG (SEQ ID NO:22) (all phosphorodiamidate morpholino (PMO); delivered paired with partially complementary DNA oligo (Special Delivery)) : Phenotype Inhibition (inhibition of spindle cell formation) is None

What the record says about Neuritin: PMO antisense to Neuritin, TTAACTCCCATCCTACGTTTAGTCA (SEQ ID NO:19) (all phosphorodiamidate morpholino (PMO); delivered paired with partially complementary DNA oligo (Special Delivery)) : Phenotype Inhibition (inhibition of spindle cell formation) is Full

What the record says about INSR: PMO antisense to INSR, GGGTCTCCTCGGATCAGGCGCG (SEQ ID NO:20) (all phosphorodiamidate morpholino (PMO); delivered paired with partially complementary DNA oligo (Special Delivery)) : Phenotype Inhibition (inhibition of spindle cell formation) is Intermediate

What the record says about LOX: PMO antisense to LOX, GGAGCACGGTCCAGGCGAAGCGCAT (SEQ ID NO:31) (all phosphorodiamidate morpholino (PMO); delivered paired with partially complementary DNA oligo (Special Delivery, EPEI)) : Phenotype Inhibition (inhibition of spindle cell formation) is Full
